- System: K4 kissing-loop RNA reporter;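 note: bound reporter read as fluorescence of individual clusters on recovered sequencing chips by microscopy, with normalized cluster intensities fitted with a binding model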
- procedureText: apparent KD of K4 kissing-loop reporter; higher = weaker reporter binding
- condition: Eterna round: R107; input ligand: arginine 13.2 mM
Binary call on apparent KD of K4 kissing-loop reporter: class 1 from 100 nM upward, class 0 beneath that.

[
  {
    "residues": "UAUGAAGGUGGAGGAUAUUGAUUGAACCUUGGUCAGGAGUGAUGUUCCGGGAAGCCUUGGGUUCAUCGAGAAGGCCAAGGAUAGU [Extra 2]",
    "classLabel": "class 1"
  },
  {
    "residues": "AAUGCAUAGUGAAGGAGCGCGAUAAGCAGUGAUGUUGCUUAGCUAUUAUUCAUUUUUUUAACGCAGGUAGGUCGCACUUUGCAUA [JR_ExcArginiB_Sub016]",
    "classLabel": "class 1"
  },
  {
    "residues": "GUGUGUGAAAACACGCACUUAUAUCCUAGGCAGGAUAUGCGGAAACGCAGAAGGGCCACCGGCGAGAAAAUCCAGUGAUGUUGGA [Ex FMN A 6]",
    "classLabel": "class 1"
  },
  {
    "residues": "CUUGGAAGGACGGCCGCCACUCGACGGAGUGAUGUUCCGUGUGGGUAGCGCAGUGAUGUUGUGUCGAGGACCGGGUCCUAGGAAU [Exclusion Tryptophan B GF 28]",
    "classLabel": "class 1"
  },
  {
    "residues": "UGAUACCAGACGGCCGCCACUAGGGCUAGCAAAGCUAGCAAGUGAUGUUUGAGGAGUGAUGUUCCUAGGACCGGGUCUGGUAUCU [TrypBX 1 #Palindromic #SwitchBubble #StaticStem]",
    "classLabel": "class 0"
  },
  {
    "residues": "CCGAAGAACCAGUGAUGUUGGUUGACUAGACAGGAUAUGAGCAACAUCAGAAGGGUCUGGCUUCGGGAGUGAGUCGCGCUGACUU [Reverigeed]",
    "classLabel": "class 1"
  }
]

---

- Test system: MS2 coat protein
- procedureText: apparent KD of MS2 coat protein; designed switch direction (-1 OFF switch, 1 ON switch): -1; higher = weaker reporter binding
- condition: Eterna round: R95; input ligand: FMN 200 uM
Measured apparent KD of MS2 coat protein determines class: band 1 (below 60 nM), band 2 (60 nM to below 100 nM), band 3 (100 nM or more)

[
  {
    "residues": "AAGAAACAUGAGGAUCACCCAUGUGAGGAUAUGUAAAGAAAAGAAAAAGAAAAGAAAAACAGAAGGCACAAAGA [JR_Exclusion1_Sub001] (puzzle: Exclusion 1)",
    "classLabel": "band 1"
  },
  {
    "residues": "GAUUAUGCGAGCUUUAGGGACAUGAGGAUCACCCAUGUUCGUCUUAUUGGUCUGAGUACACUAACAUACCUAAAUCU [JMF 15] (puzzle: Sensor v3, turn-off variant 1)",
    "classLabel": "band 1"
  },
  {
    "residues": "CUAGCUUCGGCUAGUACAAGCUUUUUGCUCGUCUUAUUAACAUGAGGAUCACCCAUGUCAAAGAGACCUCAUGUAUU [Sensor v3 - turn-off variant 2 - 2] (puzzle: Sensor v3, turn-off variant 2)",
    "classLabel": "band 3"
  },
  {
    "residues": "CGGAGCGUGGGUAGGUGCAACAUGAGGAUCACCCAUGUCUCACAAGCUUUUUGCUCAUCUUAUUGUACCUUGGUGCU [Sensor v3, turn-off variant 1 (MOD of JL v.2)] (puzzle: Sensor v3, turn-off variant 1)",
    "classLabel": "band 3"
  },
  {
    "residues": "UAUAAAAUAUAGGAUAUCGAAUAUAUUAUUUAACGAGAAGGAUGAACAUGAGGAUCACCCAUGUGGUAUCAUGG [Mat - Exclusion 6 - JL Mod - D37] (puzzle: Exclusion 6)",
    "classLabel": "band 3"
  },
  {
    "residues": "AAAGAACAUGAGGAUCACCCAUGUGAGGAUAUGUAAGGAUUGUGGAGAAGAAGAGAGAACAGAAGGCACGGAGG [JR_Exclu1_Sub068] (puzzle: Exclusion 1)",
    "classLabel": "band 1"
  },
  {
    "residues": "AGUAACCGUCACGAAAGUGAUGGUUACACAAGCAAAUGUACAUGAGGAUCACCCAUGUCCUCAAUUGCUCGUCUUAU [Sensor 3 - 50] (puzzle: Sensor v3, turn-off variant 2)",
    "classLabel": "band 3"
  },
  {
    "residues": "GGUUGGCGAGGAUAUACAUGAGGAUCACCCAUGUGAGAGAAAAAAGUGAGGAAGAAAAGUAGAAGGCGCUGACA [salish99_ex3_r3_046] (puzzle: Exclusion 3)",
    "classLabel": "band 3"
  },
  {
    "residues": "AGUACUAACACGAGAGUGUUAGUACUAUAAGCUUGUGUUACAUGAGGAUCACCCAUGUCCUCAUAAGCUCGUCUUAU [Mat - Sensor v3 - Turn-off var 2 - D79] (puzzle: Sensor v3, turn-off variant 2)",
    "classLabel": "band 3"
  },
  {
    "residues": "CUCUUGUCAGGAUAUCAACGCCGCCCACACGGGCGGCGAAAUGAGAAGGGACAUGAGGAUCACCCAUGUUAAAA [Orsoesarqu] (puzzle: Exclusion 4)",
    "classLabel": "band 1"
  },
  {
    "residues": "UAAAAGGUAGGAUAUACGAAAAAAAAGGGUAGAAAAAAAACACAUGAGGAUCACCCAUGUAGAAGGACCAAAAG [salish99_ex2_r3_048] (puzzle: Exclusion 2)",
    "classLabel": "band 2"
  },
  {
    "residues": "GAUUAUGCGAGCUUUAGGGACAUGAGGAUCACCCAUGUUCGUCUUAUUAGUCUAGGUGCACUGACAUACCUAAAUCU [JMF 90] (puzzle: Sensor v3, turn-off variant 1)",
    "classLabel": "band 1"
  },
  {
    "residues": "ACAAGCUUUUUGUUCGUCUUAUAAUAAUAAAUAAAUAUAACAUGAGGAUCACCCAUGUUGAGAAGACAGCCUCAUGU [Sesor Array 23 - Jieux - Sensor v3, turn-off variant 2] (puzzle: Sensor v3, turn-off variant 2)",
    "classLabel": "band 3"
  },
  {
    "residues": "GCUUUUCUUUUCCUUUCUUACAUGAGGAUCACCCAUGUUUCUUGUCGUGCUCGCGUUGCUCGUCUGUCUGUCUGUUG [salish99_TOv1_r3_077(!)] (puzzle: Sensor v3, turn-off variant 1)",
    "classLabel": "band 1"
  },
  {
    "residues": "GCAGUGCGAGGAUAUACAUGAGGAUCACCCAUGUGAGAAUAAGAAGUGAGGAAGAAAAGUAGAAGGCGCGUUGG [Mat - Exclusion 3 - Mod of Salish D66] (puzzle: Exclusion 3)",
    "classLabel": "band 2"
  },
  {
    "residues": "CUAGAUCAUUGGAUCUAGUACAUGAGGAUCACCCAUGUGACGAGUUACAUGUUAUAUAAGCUUUUUGCUCGUCAUUU [AK 1] (puzzle: Sensor v3, turn-off variant 1)",
    "classLabel": "band 2"
  },
  {
    "residues": "UGGCUGCUUAUGGAGUGUGACAUGAGGAUCACCCAUGUGGUAGUAAGGAACAAGCUUUUUACACGUACUUAUAAAGC [JR_SV3TOV1_Sub012] (puzzle: Sensor v3, turn-off variant 1)",
    "classLabel": "band 3"
  }
]

---

- Tested on: MS2 coat protein
- procedureText: apparent KD of MS2 coat protein; designed switch direction (-1 OFF switch, 1 ON switch): 1; higher = weaker reporter binding
- condition: input ligand: none
Use 80 nM as the dividing line for apparent KD of MS2 coat protein, with the line itself on the label 1 side and lower values as label 0.

[
  {
    "residues": "GCGGAAUGGUGUGACAUGAGGAUCACCCAUGUAACCUCAUGUAAGGAUAUCGGGAAGAAGAAAACCGAGAAGGUACGGUGACGC [AK SSNG3-V2-28] (Eterna round: R96, puzzle: Same State NG 3)",
    "classLabel": "label 1"
  },
  {
    "residues": "AGCCGAGACACAGGAUAUAGAUAUCUACAUGAGGAUCACCCAUGUAGCAACACGUGGUAGUGAUUCUAGAAGGGUGCUCGGCGC [Omei SS(NG)2 Cv8] (Eterna round: R96, puzzle: Same State NG 2)",
    "classLabel": "label 1"
  },
  {
    "residues": "AACCCGAUGGAAGGAUAUGGCACCUUAUUGGUGCCAGAAGGUCCAAACAUGAGGAUCACCCAUGUGGGCCGGUCGAAAGACCGG [Fiskers NG1ss - 11] (Eterna round: R96, puzzle: Same State NG 1)",
    "classLabel": "label 0"
  },
  {
    "residues": "GGACGUCGAUCUCCUACUUAAACAUGAGGAUCACCCAUGUCACAGGAUAUGAGUCCGAUUAGGACUCAGAAGGGUGCGACGUCC [Fiskers NG3ss - 51] (Eterna round: R96, puzzle: Same State NG 3)",
    "classLabel": "label 0"
  },
  {
    "residues": "AGUCCAGCCUGAGCUGGACAAAAGCAUGUACAUGAGGAUCACCCAUGUCAUGUACAAGCUUUUUGCAAAUCUUAAUA [Mat - hsa-mir-208a - Mod of JL - D34] (Eterna round: R96, puzzle: Sensor for hsa-mir-208a)",
    "classLabel": "label 1"
  },
  {
    "residues": "UAUUUAAUCGUAGGAUAUAGAGUGAAAUUUGGACUAGAAGGACGUAACAUGAGGAUCACCCAUGUGGUAAGUGGGACACAGUGU [JR_SSNG1_Sub038] (Eterna round: R96, puzzle: Same State NG 1)",
    "classLabel": "label 1"
  },
  {
    "residues": "CUUUUUAGUGCAGGAUAUGAUCAACAUGAGGAUCACCCAUGUGGCGUUGUGAGUAGGGAGAGUGAUCAGAAGGGCGUCUCCGCG [SS-NG2-LRO11] (Eterna round: R96, puzzle: Same State NG 2)",
    "classLabel": "label 0"
  },
  {
    "residues": "AACUGUUUCUGAGGAUAUCAGUAGUAUGCCAAUUGAGAAGGCAGUACAUGAGGAUCACCCAUGUUGUGGUUUGAUAGAAUGAUA [JR_SSNG1_Sub003] (Eterna round: R96, puzzle: Same State NG 1)",
    "classLabel": "label 1"
  },
  {
    "residues": "GACCGCGAGGAAGGAUAUGGAGCCUUAUUGGCUCCAGAAGGUCCAUAAAGGACAUGAGGAUCACCCAUGUGGGUUGGAGCGGUC [Fiskers NG1ss - 0] (Eterna round: R96, puzzle: Same State NG 1)",
    "classLabel": "label 1"
  },
  {
    "residues": "AAUUAAGAUUGAGGAUAUCACGUCGAUUAGACGUGAGAAGGCGAUCAUAACAUGAGGAUCACCCAUGUAUUACAUGAAUUAAUU [SSNG1/5-B2] (Eterna round: R96, puzzle: Same State NG 1)",
    "classLabel": "label 0"
  },
  {
    "residues": "AUACCGUGCCAAGGAUAUGGUGUAAACACAUGAGGAUCACCCAUGUCAGAGAGUCGAGCGACUAGCUAGAAGGUGGUAUGGGAA [Eternabot solution 9] (Eterna round: R96, puzzle: Same State NG 2)",
    "classLabel": "label 1"
  },
  {
    "residues": "UUGCUCGUGUGAGGAUAUGCCGCCGUUUCGGCUGCAGAAGGUACUACGUUACAUGAGGAUCACCCAUGUCUCUGUUGUUUCGUG [salish99_SSNG1_r04_940] (Eterna round: R96, puzzle: Same State NG 1)",
    "classLabel": "label 0"
  },
  {
    "residues": "GUAGCAUGCAGGCAGGAUAUUCAUAUUAAAACAUGAGGAUCACCCAUGUAGGCCGAAAGGCCUUGGGAGAAGGGCCACAUGCUAC [Xeonanis - 18] (Eterna round: R96, puzzle: Same State 2)",
    "classLabel": "label 1"
  },
  {
    "residues": "ACCCGCGGGCCACAUGAGGAUCACCCAUGUGACCGGUGAUCCAAGGAUAUACGUGUGAUAGACGCGUAGAAGGUGGCCAAAACU [Rirazaedat] (Eterna round: R96, puzzle: Same State NG 3)",
    "classLabel": "label 0"
  },
  {
    "residues": "GGAAUAUUUACAGGAUAUGAUUUGUAAAUUCGAUCAGAAGGGUGGAUGUCUUACACGGUUUGUUACAUGAGGAUCACCCAUGUC [SameState NG1 #12] (Eterna round: R96, puzzle: Same State NG 1)",
    "classLabel": "label 1"
  },
  {
    "residues": "AUAGUUUCCGAAGGAUAUGAUGAGGAUCACCCAUCAGAAGGUUGGCUAUUGGGCUGACAUGAGGAUCACCCAUGUUCCGGUGUU (Eterna round: R96, puzzle: Same State NG 1)",
    "classLabel": "label 0"
  },
  {
    "residues": "GGUCGGACAAAACAUGAGGAUCACCCAUGUCCGGAAACGGCAUAGGAUAUCUGUCCGAAAAGGUCAGAGAAGGGUGAACCGACC [Fiskers NG3ss - 70] (Eterna round: R96, puzzle: Same State NG 3)",
    "classLabel": "label 1"
  }
]
